Kindly state % Inhibition for each of the entries shown.
- Tested on: human SMAD7 mRNA
- measurement protocol: Antisense inhibition of human SMAD7 mRNA expression in Hep3B cells by 3-10-3 cEt gapmers, 10,000 nM, electroporation (Example 2)
- Format: cell-based
- particulars: Hep3B cells, 10,000 nM antisense oligonucleotide, electroporation, approximately 24 hours, RT-PCR primer probe set RTS5062, relative to untreated control cells
Strand notation (5' to 3'): a small letter for the sugar, then the base; units joined by * are phosphorothioate-linked, units joined directly phosphodiester-linked; [ ] holds rarer units or linkages, { } end groups; capitals alone tell only the bases. k = constrained ethyl (cEt); [5mC] = 5-methylcytosine; d = 2'-deoxy (DNA)
Answer format: numeric, % implied, no suffix.

Prompt: Item 799852 (k[5mC]*kA*kA*dG*dT*dG*dT*d[5mC]*d[5mC]*dA*dT*d[5mC]*dA*kA*kG*k[5mC]; antisense) [compound 799852] has what recorded % Inhibition?
Completion: 11

Prompt: Item 800054 (antisense kG*k[5mC]*kT*dA*d[5mC]*dA*d[5mC]*d[5mC]*dA*dA*dA*dG*dA*k[5mC]*k[5mC]*kT) [compound 800054] has what recorded % Inhibition?
Completion: 62

Prompt: Item 799995 (k[5mC]*kT*kG*dT*dG*dA*dG*dG*d[5mC]*dA*d[5mC]*dT*dT*kG*kG*kA; antisense) [compound 799995] has what recorded % Inhibition?
Completion: 63

Prompt: Item 798891 (kG*k[5mC]*k[5mC]*d[5mC]*dT*dT*d[5mC]*dA*d[5mC]*dA*dA*dA*dG*k[5mC]*kT*kG; antisense) [compound 798891] has what recorded % Inhibition?
Completion: 58

Prompt: Item 799936 (antisense k[5mC]*kT*kT*dT*dA*dA*dT*dT*dT*d[5mC]*dA*dG*dA*kG*kT*k[5mC]) [compound 799936] has what recorded % Inhibition?
Completion: 44

Prompt: Item 800055 (antisense kA*kT*kA*dA*dA*d[5mC]*dT*dT*dG*dT*dG*dA*dG*k[5mC]*kG*k[5mC]) [compound 800055] has what recorded % Inhibition?
Completion: 8

Prompt: Item 798914 (kG*kT*k[5mC]*d[5mC]*d[5mC]*d[5mC]*dT*d[5mC]*d[5mC]*dG*d[5mC]*dA*d[5mC]*kG*k[5mC]*kG; antisense) [compound 798914] has what recorded % Inhibition?
Completion: 56

Prompt: Item 800018 (kA*kA*kA*dA*d[5mC]*dT*d[5mC]*dA*d[5mC]*dA*dG*dT*d[5mC]*k[5mC]*kT*kT; antisense) [compound 800018] has what recorded % Inhibition?
Completion: 51

Prompt: Item 798927 (antisense k[5mC]*kA*kG*d[5mC]*dA*dA*dA*dG*dT*dA*dG*dT*dT*kT*kG*kA) [compound 798927] has what recorded % Inhibition?
Completion: 0

Prompt: Item 800037 (k[5mC]*kA*k[5mC]*d[5mC]*dA*dG*d[5mC]*dA*dG*d[5mC]*d[5mC]*dT*d[5mC]*kT*kG*kT; antisense) [compound 800037] has what recorded % Inhibition?
Completion: 0

Prompt: Item 799971 (kG*kT*kA*dA*dA*dA*d[5mC]*dT*dT*dG*d[5mC]*dT*dG*kA*kG*kA; antisense) [compound 799971] has what recorded % Inhibition?
Completion: 31

Prompt: Item 798838 (k[5mC]*k[5mC]*kG*dA*dA*dT*dT*dG*dA*dG*d[5mC]*dT*dG*kT*k[5mC]*k[5mC]; antisense) [compound 798838] has what recorded % Inhibition?
Completion: 58

This collection of values is drawn from patent US10517889B2.
